System: Tryptase, from human lung
Assay: Enzymatic assay, tryptase
Conditions: at 100 μM
Where a SMILES comes first, the peptide text is derived from it.
MEASURED_ENDPOINT: Tryptase At 100 μM %

Given CCCC[C@@H]1NC(=O)[C@H](Cc2ccccc2)NC(=O)[C@H]2CCCN2C(=O)[C@H](Cc2ccc(O)cc2)NC(=O)[C@@H]2CSSC[C@H](NC1=O)C(=O)N[C@@H]([C@@H](C)O)C(=O)N[C@@H](C)C(=O)N[C@@H](CO)C(=O)N[C@@H]([C@@H](C)CC)C(=O)N1CCC[C@H]1C(=O)N1CCC[C@H]1C(=O)N[C@@H](CCC(N)=O)C(=O)N2 [compound 167] (HELM PEPTIDE1{[Nle].C.T.A.S.I.P.P.Q.C.Y.[dP].F}$PEPTIDE1,PEPTIDE1,2:R3-10:R3|PEPTIDE1,PEPTIDE1,1:R1-13:R2$$$V2.0) , state its recorded Tryptase At 100 μM %.
0.2%

---

Molecular target: Coagulation Factor Xa, from uman plasma (Homo sapiens, UniProt P00742)
Sequence (P00742 235-488 limits assumed): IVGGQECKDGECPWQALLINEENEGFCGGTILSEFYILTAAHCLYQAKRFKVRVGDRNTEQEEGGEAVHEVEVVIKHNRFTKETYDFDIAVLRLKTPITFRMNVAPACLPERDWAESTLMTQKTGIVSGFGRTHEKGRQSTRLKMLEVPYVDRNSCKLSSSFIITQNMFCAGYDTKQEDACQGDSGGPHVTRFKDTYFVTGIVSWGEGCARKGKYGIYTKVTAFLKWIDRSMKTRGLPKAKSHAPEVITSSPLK
Sequence (P00742 41-179 limits assumed): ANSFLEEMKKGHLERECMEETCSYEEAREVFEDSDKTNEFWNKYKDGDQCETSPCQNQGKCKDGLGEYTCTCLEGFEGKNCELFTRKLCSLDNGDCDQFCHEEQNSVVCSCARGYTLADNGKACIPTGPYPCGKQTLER
Test: Enzymatic assay, coagulation factor Xa
Where a SMILES comes first, the peptide text is derived from it.
MEASURED_ENDPOINT: FXa at 100 μM % (%)
The figure you give is taken to be in %; do not add the unit.

Solved entries:
CC[C@H](C)[C@@H]1NC(=O)[C@@H]2CCCN2C(=O)[C@@H]2CCCN2C(=O)[C@H](CC(=O)O)NC(=O)[C@H](CO)NC(=O)[C@H](CCCCN)NC(=O)[C@H]([C@@H](C)O)NC(=O)[C@@H]2CSSC[C@H](NC1=O)C(=O)N[C@@H](CC(N)=O)C(=O)N1CCC[C@@H]1C(=O)N1CCC[C@H]1C(=O)N[C@@H](Cc1ccc(N)cc1)C(=O)N2 [Ex. 31] (HELM PEPTIDE1{[Nc1ccc(C[C@H](N[*:1])C(=O)[*:2])cc1].C.T.K.S.D.P.P.I.C.N.[dP].P}$PEPTIDE1,PEPTIDE1,2:R3-10:R3|PEPTIDE1,PEPTIDE1,1:R1-13:R2$$$V2.0) ... 8
CC[C@H](C)[C@@H]1NC(=O)[C@@H]2CCCN2C(=O)[C@H]2CCCN2C(=O)[C@H](CCCNC(=N)N)NC(=O)[C@@H]2CSSC[C@H](NC1=O)C(=O)N[C@@H]([C@@H](C)O)C(=O)N[C@@H](CCCCN)C(=O)N[C@@H](CO)C(=O)N[C@@H](CC(=O)O)C(=O)N1CCC[C@H]1C(=O)N1CCC[C@H]1C(=O)N[C@@H](CC1CCCCC1)C(=O)N2 [Ex. 58] (HELM PEPTIDE1{I.C.T.K.S.D.P.P.[Cha].C.R.[dP].P}$PEPTIDE1,PEPTIDE1,2:R3-10:R3|PEPTIDE1,PEPTIDE1,1:R1-13:R2$$$V2.0) ... 25
CC[C@H](C)[C@@H]1NC(=O)[C@@H]2CCCN2C(=O)[C@@H]2CCCN2C(=O)[C@H](CC(=O)O)NC(=O)[C@H](CO)NC(=O)[C@H](CCCCN)NC(=O)[C@H]([C@@H](C)O)NC(=O)[C@@H]2CSSC[C@H](NC1=O)C(=O)N[C@@H](CO)C(=O)N1CCC[C@@H]1C(=O)N[C@@H](CCC(=O)O)C(=O)N[C@@H](Cc1ccccc1)C(=O)N2 [Ex. 64] (HELM PEPTIDE1{F.C.T.K.S.D.P.P.I.C.S.[dP].E}$PEPTIDE1,PEPTIDE1,2:R3-10:R3|PEPTIDE1,PEPTIDE1,1:R1-13:R2$$$V2.0) ... 0

Now take the following molecule into account.
Would you kindly share the measured FXa at 100 μM % for CCCCCC[C@@H]1NC(=O)[C@@H]2CCCN2C(=O)[C@H]2CCCN2C(=O)[C@H](Cc2ccc(O)cc2)NC(=O)[C@@H]2CSSC[C@H](NC1=O)C(=O)N[C@@H]([C@@H](C)O)C(=O)N[C@@H](C)C(=O)N[C@@H](CO)C(=O)N[C@@H]([C@@H](C)CC)C(=O)N1CCC[C@H]1C(=O)N1CCC[C@H]1C(=O)N[C@@H](CCC(N)=O)C(=O)N2 [Ex. 99] (HELM PEPTIDE1{[CCCCCC[C@H](N[*:1])C(=O)[*:2]].C.T.A.S.I.P.P.Q.C.Y.[dP].P}$PEPTIDE1,PEPTIDE1,2:R3-10:R3|PEPTIDE1,PEPTIDE1,1:R1-13:R2$$$V2.0) ?
0

Recorded values, source patent US8658604B2.
